experiment: -log concentration required to induce 50% maximum lipogenic activity against Peroxisome proliferator activated receptor gamma
RECORDED METRIC: pEC50
For clarity, pEC50 is expressed as the negative log10 of concentration in mol/L.

input: # return recorded pEC50 for input CN(CCOc1ccc(CC(Nc2ccncc2C(=O)c2ccccc2)C(=O)O)cc1)c1nc2ccccc2o1 (stereo unspecified)
output: 6.14

input: # return recorded pEC50 for input "CN(CCOc1ccc(C[C@H](Nc2ccccc2C(=O)C2CCCCC2)C(=O)O)cc1)c1nc2ccccc2o1"
output: 8.07

input: # return recorded pEC50 for input "Cc1oc(-c2ccccc2)nc1CCOc1ccc(C[C@@H](Nc2ccccc2C(=O)C2CCCCC2)C(=O)O)cc1"
output: 6.43

input: # return recorded pEC50 for input Cc1oc(-c2ccccc2)nc1CCOc1ccc(CC(Nc2ccccc2C(=O)c2ccc(CN(C)C)cc2)C(=O)O)cc1 (stereo unspecified)
output: 6.01

input: # return recorded pEC50 for input COc1ccc(C(=O)c2ccccc2NC(Cc2ccc(OCCN(C)c3nc4ccccc4o3)cc2)C(=O)O)cc1 (stereo unspecified)
output: 7.02

input: # return recorded pEC50 for input Cc1ccc(NC(Cc2ccc(OCCN(C)c3nc4ccccc4o3)cc2)C(=O)O)c(C(=O)c2ccccc2)c1 (stereo unspecified)
output: 7.20
